Recorded Cmax by entry
experiment: Cmax in rat at 1 mg/kg, po
Format: ADME, organism-based
Parameters: dose 1 mg/kg, route oral
assay.conditions: in vivo
property.label: Cmax (ng/mL)

CC(=O)c1ccc(OCc2ccc(Oc3cc(-c4nn[nH]n4)ccn3)cc2)c(C)c1O: 78
CC(=O)c1ccc(OCc2ccc(Oc3cccc(-c4nn[nH]n4)c3)cc2)c(C)c1O: 430
CC(=O)c1ccc(OCc2cccc(Oc3cc(-c4nn[nH]n4)ccn3)c2)c(C(F)(F)F)c1O: 24.1

---

experimental.target: Metabotropic glutamate receptor 5 (Homo sapiens, UniProt P41594)
Sequence (P41594 whole entry): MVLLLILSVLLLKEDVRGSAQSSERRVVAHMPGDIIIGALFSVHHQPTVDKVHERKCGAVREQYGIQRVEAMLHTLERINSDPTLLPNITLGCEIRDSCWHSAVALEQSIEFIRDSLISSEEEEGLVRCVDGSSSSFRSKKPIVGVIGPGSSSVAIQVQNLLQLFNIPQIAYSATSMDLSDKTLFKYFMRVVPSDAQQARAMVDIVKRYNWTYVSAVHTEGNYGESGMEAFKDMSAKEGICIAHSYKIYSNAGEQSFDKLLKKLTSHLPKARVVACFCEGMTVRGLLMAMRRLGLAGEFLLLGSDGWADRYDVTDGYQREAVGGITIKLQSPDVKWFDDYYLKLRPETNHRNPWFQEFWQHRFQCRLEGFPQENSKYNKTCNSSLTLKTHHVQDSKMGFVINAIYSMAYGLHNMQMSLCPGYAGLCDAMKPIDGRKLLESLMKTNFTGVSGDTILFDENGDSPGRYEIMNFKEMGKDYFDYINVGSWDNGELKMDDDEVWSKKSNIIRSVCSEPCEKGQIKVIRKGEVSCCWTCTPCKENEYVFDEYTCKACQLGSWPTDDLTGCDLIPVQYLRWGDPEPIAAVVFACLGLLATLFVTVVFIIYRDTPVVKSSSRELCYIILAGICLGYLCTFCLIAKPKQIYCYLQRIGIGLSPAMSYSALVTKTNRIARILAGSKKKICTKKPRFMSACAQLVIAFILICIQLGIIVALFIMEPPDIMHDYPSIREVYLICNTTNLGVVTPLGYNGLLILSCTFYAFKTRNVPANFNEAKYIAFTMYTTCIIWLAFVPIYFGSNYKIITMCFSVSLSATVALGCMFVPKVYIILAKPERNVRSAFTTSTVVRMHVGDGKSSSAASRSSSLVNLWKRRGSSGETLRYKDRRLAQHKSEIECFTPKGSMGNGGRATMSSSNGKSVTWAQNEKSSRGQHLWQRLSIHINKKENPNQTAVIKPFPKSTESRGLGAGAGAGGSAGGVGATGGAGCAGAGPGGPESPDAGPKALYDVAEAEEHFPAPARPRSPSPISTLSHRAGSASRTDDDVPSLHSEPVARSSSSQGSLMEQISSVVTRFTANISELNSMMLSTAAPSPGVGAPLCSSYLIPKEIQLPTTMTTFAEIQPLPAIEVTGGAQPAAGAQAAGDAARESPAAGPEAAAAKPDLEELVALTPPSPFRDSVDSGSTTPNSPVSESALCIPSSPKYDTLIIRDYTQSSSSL
experiment: Antagonist activity at recombinant human mGlu5 receptor expressed in hamster AV12 cells expressing EAAT1 assessed as inhibition of glutamate-induced intracellular Ca2+ level measured after 24 hrs by FLIPR assay
Format: functional, cell-based
pIC50: −log10 of the molar value.
property.label: pIC50

CC(=O)c1ccc(OCc2ccc(Oc3cc(-c4nn[nH]n4)ccn3)cc2)c(C)c1O: < 4.90

Numbers sourced from ChEMBL document CHEMBL3872247.
